# test-name: P. aeruginosa biofilm formation inhibitors, primary screen, PAO1 strain, BacTiter-Glo luminescence, LB-PBS (AID 1144)
# applied-conditions: 12 h, higher = more signal
property: z-score

| compound | val |
| --- | --- |
| COc1cc(NN2C(C(O)c3ccccc3)C=CC3C(=O)N(C)C(=O)C32)cc(OC)c1OC (centres undefined) | -0.426 |
| CO[C@H]1O[C@H](CO)[C@@H](OC(=O)Nc2cccc(F)c2)[C@H](OC(=O)Nc2ccccc2-c2ccccc2)[C@H]1OC(=O)Nc1ccccc1-c1ccccc1 | 0.0177 |
| Cc1c(NC(=O)/C(C#N)=C/c2ccccc2Cl)c(=O)n(-c2ccccc2)n1C | -0.543 |
| O=C1C[C@@](C(=O)NCC(F)(F)F)(c2ccc([N+](=O)[O-])cc2)[C@@H](c2ccc(CO)cc2)N1CC12CC3CC(CC(C3)C1)C2 | -0.542 |
